Listing: AIRE transcriptional activation functional score of selected variants
B1: library; numbered along this chain (parent)
chain: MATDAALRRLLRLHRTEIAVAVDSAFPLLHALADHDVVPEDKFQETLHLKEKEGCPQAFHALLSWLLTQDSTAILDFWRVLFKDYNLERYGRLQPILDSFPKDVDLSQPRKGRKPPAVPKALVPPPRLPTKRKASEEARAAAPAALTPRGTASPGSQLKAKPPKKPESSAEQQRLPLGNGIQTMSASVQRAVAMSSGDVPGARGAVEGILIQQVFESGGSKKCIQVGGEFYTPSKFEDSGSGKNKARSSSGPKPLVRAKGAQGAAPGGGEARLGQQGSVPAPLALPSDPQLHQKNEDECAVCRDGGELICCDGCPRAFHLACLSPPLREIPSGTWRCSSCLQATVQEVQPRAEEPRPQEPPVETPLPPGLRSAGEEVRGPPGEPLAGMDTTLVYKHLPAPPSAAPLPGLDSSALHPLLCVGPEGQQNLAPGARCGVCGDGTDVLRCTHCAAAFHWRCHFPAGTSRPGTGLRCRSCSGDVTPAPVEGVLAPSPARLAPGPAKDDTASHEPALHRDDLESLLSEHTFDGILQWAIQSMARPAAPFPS

- Variants of: B1
- measurement.protocol: AIRE transcriptional activation functional score (insulin promoter-GFP; nonsense median 0, synonymous median 1) (normalised score); higher = higher AIRE activity (more reporter activation)
- condition.notes: with insulin promoter-GFP reporter in HEK293

Here is how some variants turned out for AIRE transcriptional activation functional score.
{"variant.notation": "E171S", "val": 1.96}
{"variant.notation": "D389N", "val": 1.22}
{"variant.notation": "A186P", "val": 0.846}

Q: Recorded AIRE transcriptional activation functional score for "G208T" , please?
Result: 0.433

Q: Report AIRE transcriptional activation functional score for "G180Y" please.
Result: 0.548

Q: Give the measured AIRE transcriptional activation functional score of "W78I" .
Result: 0.15

Q: Look up AIRE transcriptional activation functional score: "L29A"
Result: -0.0346

Q: What value of AIRE transcriptional activation functional score has been reported for the following variant? "L428R"
Result: 0.941

Q: Need AIRE transcriptional activation functional score of "T468H" , thanks.
Result: 0.996
